Data origin, for the record: patent US4673747A

What log10 Kb was measured for each of the following?
target: Histamine H2-Receptor (Cavia porcellus, UniProt P47747); construct: from tissue; host or cells: isolated atrium of male Hartley guinea pig; parameters: species or system guinea pig (male Hartley); details: isolated guinea pig atrium; negative logarithm of molar concentration; heart beats, histamine dose-response; read-out: Antagonistic Action against Histamine H2-Receptor (pA2) Determined by Using Atrium isolated from Guinea Pig (converted)
Sequence (P47747 whole entry): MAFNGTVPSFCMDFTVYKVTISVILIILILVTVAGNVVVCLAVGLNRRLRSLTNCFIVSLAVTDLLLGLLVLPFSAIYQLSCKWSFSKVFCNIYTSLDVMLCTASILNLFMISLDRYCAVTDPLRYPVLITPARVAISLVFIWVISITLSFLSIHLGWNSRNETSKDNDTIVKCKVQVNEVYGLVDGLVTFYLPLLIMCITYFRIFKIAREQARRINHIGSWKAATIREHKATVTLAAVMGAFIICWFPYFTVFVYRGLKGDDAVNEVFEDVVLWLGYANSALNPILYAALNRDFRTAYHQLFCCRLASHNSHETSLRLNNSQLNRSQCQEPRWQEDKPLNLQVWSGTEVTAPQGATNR
log10 Kb, nM

Q: Quick one: log10 Kb for C#CCNc1c(NC/C=C\COc2cccc(CN3CCCCC3)c2)c(=O)c1=O [Ex. 4] ?
A: 2.89

Q: What does the data say about its log10 Kb? Entry: Nc1nnc(NC/C=C/COc2cccc(CN3CCCCC3)c2)s1 [Ex. 25]
A: 2.31

Q: Reported log10 Kb for Nc1c(NC/C=C\COc2cccc(CN3CCCCC3)c2)c(=O)c1=O [Ex. 2] : what is it?
A: 1.80

Q: Please give the measured log10 Kb for this compound: CNc1c(NC/C=C\COc2cccc(CN3CCCCC3)c2)c(=O)c1=O [Ex. 3]
A: 2.49

Q: # lookup: log10 Kb of O=c1c(NC/C=C\COc2cccc(CN3CCCCC3)c2)c(NCc2ccncc2)c1=O [Ex. 38]
A: 2.77

Q: Value lookup for log10 Kb; key = Nc1n[s+]([O-])nc1NC/C=C\COc1cccc(CN2CCCC2)c1 (centres unmarked) [Ex. 17]
A: 1.99

Q: What value of log10 Kb has been reported for the following compound? Cn1c(NC/C=C/COc2cccc(CN3CCCCC3)c2)cc(N)nc1=O [Ex. 14]
A: 3.85

Q: Field request: log10 Kb | item: Nc1n[nH]c(=O)nc1NC/C=C/COc1cccc(CN2CCCCC2)c1 [Ex. 11]
A: 2.82

Q: Which value of log10 Kb has been reported for CNc1nn(C)c(=O)nc1NC/C=C/COc1cccc(CN2CCCCC2)c1 [Ex. 12] in the records?
A: 3.18

Q: # log10 Kb lookup, item CNc1nnc(NC/C=C\COc2cccc(CN3CCCCC3)c2)s1 [Ex. 28]
A: 3.67

Q: Which log10 Kb value belongs to CNc1n[s+]([O-])nc1NC/C=C\COc1cccc(CN2CCCCC2)c1 (centres unmarked) [Ex. 16] ?
A: 3.38

Q: Requested field: log10 Kb. Item: CN(C)Cc1cccc(OC/C=C\CNc2n[s+]([O-])nc2N)c1 (centres unmarked) [Ex. 21]
A: 2.36

Q: For the compound shown here, CCCNc1n[s+]([O-])nc1NC/C=C\COc1cccc(CN2CCCCC2)c1 (centres unmarked) [Ex. 20] , give the reported log10 Kb.
A: 2.59

Q: Value lookup for log10 Kb; key = Nc1c(NC/C=C\COc2cccc(CN3CCCC3)c2)c(=O)c1=O [Ex. 8]
A: 2.18

Q: Which measured log10 Kb value corresponds to CC1CCN(Cc2cccc(OC/C=C\CNc3c(N)c(=O)c3=O)c2)CC1 [Ex. 35] ?
A: 2.42

Q: Look up log10 Kb for this compound: Nc1nnc(NC/C=C\COc2cccc(CN3CCCCC3)c2)s1 [Ex. 27]
A: 2.69

Q: Record request: log10 Kb value, item CNc1n[nH]c(=O)nc1NC/C=C\COc1cccc(CN2CCCCC2)c1 [Ex. 10]
A: 2.34

Q: Given the entry CNc1nnc(NC/C=C/COc2cccc(CN3CCCCC3)c2)s1 [Ex. 26] , report its measured log10 Kb.
A: 3.98

Q: Query: log10 Kb; subject: CC1CCCCN1Cc1cccc(OC/C=C\CNc2c(N)c(=O)c2=O)c1 (centres unmarked) [Ex. 33]
A: 2.22

Q: Value lookup for log10 Kb; key = Nc1nnc(NC/C=C\COc2cccc(CN3CCCC3)c2)s1 [Ex. 29]
A: 2.50
